These measurements were taken from patent US20140323392A1.

# Assay Target: HIV-1 JRFL envelope glycoprotein gp41 (N-trimer of the prehairpin intermediate) (HIV-1 strain JRFL)
# Protocol: cell-based or functional assay
Bridges are numbered along the chain shown (N, C = ends). Roman numbers before positions name the chains, in order. [ ]: non-standard residue; d: D form.
Readout Type: IC50, JRFL pseudovirion entry
The reply should consist of the numeric value with the unit placed after it.

Binder	IC50, JRFL pseudovirion entry
Ac-[dK]G[dA][dC][dD][dY][dP][dE][dW][dQ][dW][dL][dC][dA][dA]-NH2 (disulfide 4-13 (inferred); also: trimer linked by PEG9 spacers) [N9N(PIE7)3]	220 nM

-- ask Which IC50, JRFL pseudovirion entry value belongs to C0C(PIE7-GK)3 (disulfide I:3-I:12, II:3-II:12 (inferred); also: trimer, C-terminal Lys residues linked by zero length spacers) peptide 1: Ac-G[dA][dC][dD][dY][dP][dE][dW][dQ][dW][dL][dC][dA][dA]G[dK]-NH2 peptide 2: Ac-G[dA][dC][dD][dY][dP][dE][dW][dQ][dW][dL][dC][dA][dA]G[dK][dK]-NH2 ?
-- reply 16.1 nM

-- ask Which IC50, JRFL pseudovirion entry value belongs to Ac-G[dA][dC][dD][dY][dP][dE][dW][dQ][dW][dL][dC][dA][dA]G[dK]-NH2 (disulfide 3-12 (inferred); also: linked to trifunctional crosslinker LC-TSAT) [PIE7-GK long claw] ?
-- reply 20.6 nM
